target: Dipeptidyl peptidase 4 (Homo sapiens); experiment: Inhibition of human recombinant DPP-4 at 100 uM using Gly-Pro-Aminomethylcoumarin as substrate by Spectra max fluorometer analysis relative to control
Sequence (P27487 whole entry, looked up): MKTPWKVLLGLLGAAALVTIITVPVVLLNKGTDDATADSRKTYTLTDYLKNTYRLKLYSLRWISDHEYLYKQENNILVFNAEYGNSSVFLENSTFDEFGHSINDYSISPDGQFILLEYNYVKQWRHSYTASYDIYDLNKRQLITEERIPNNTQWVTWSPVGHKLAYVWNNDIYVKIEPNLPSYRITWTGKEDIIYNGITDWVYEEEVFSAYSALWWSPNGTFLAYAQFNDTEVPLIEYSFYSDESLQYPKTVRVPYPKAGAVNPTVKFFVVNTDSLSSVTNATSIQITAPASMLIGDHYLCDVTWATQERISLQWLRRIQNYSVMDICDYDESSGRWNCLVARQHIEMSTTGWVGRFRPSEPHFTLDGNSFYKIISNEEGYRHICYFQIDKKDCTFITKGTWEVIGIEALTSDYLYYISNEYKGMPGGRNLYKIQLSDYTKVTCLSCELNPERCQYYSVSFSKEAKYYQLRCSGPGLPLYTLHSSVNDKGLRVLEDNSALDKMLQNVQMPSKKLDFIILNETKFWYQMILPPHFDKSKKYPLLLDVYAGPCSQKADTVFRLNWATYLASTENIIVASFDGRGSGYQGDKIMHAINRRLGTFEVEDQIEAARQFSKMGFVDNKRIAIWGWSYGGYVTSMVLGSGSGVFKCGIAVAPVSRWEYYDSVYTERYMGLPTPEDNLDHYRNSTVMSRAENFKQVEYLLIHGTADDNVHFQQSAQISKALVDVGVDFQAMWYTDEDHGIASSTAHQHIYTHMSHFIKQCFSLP
Reported endpoint: inhibition (%)
Numbers only here, please. The scale is %.

Solved entries (count: 5):
Note to self: inhibition recorded for Cc1ccc(NC(=O)CNc2cc3ccc4ccccc4c3oc2=O)cc1 was 26.7

Note to self: inhibition recorded for O=C(CNc1cc2ccc3ccccc3c2oc1=O)Nc1ccc(Cl)cc1 was 26.7

Note to self: inhibition recorded for CCOC(=O)c1ccc2cc(OCC(=O)N3CCOCC3)c(=O)oc2c1 was 1.3

Note to self: inhibition recorded for CCOC(=O)c1ccc2cc(OCC(=O)N3CCCCC3)c(=O)oc2c1 was 1.3

Note to self: inhibition recorded for COC(=O)c1ccc2cc(OCC(=O)Nc3ccc(C)cc3)c(=O)oc2c1 was 1.3

# ---- query compound ----
Note to self: inhibition recorded for O=C(CNc1cc2ccc3ccccc3c2oc1=O)Nc1ccc(F)cc1 was 26.7

* * *

experiment: Blood glucose AUC in ICR mouse at 15 mg/kg; conditions: in vivo
Reported endpoint: glucose AUC (mmol/L/min)
Numbers only here, please. The scale is mmol/L/min.

Solved entries (count: 2):
Note to self: glucose AUC recorded for N#C[C@@H]1CCCN1C(=O)CNC12CC3CC(CC(O)(C3)C1)C2 [VILDAGLIPTIN] was 904

Note to self: glucose AUC recorded for N#C[C@@H]1C[C@H](F)CN1C(=O)[C@@H](N)Cc1cc(Cl)c(Cl)cc1Cl was 795

# ---- query molecule ----
Note to self: glucose AUC recorded for N#C[C@@H]1[C@@H]2CCC[C@@H]2CN1C(=O)[C@@H](N)Cc1cc(F)c(F)cc1F was 847

* * *

biological target: Dipeptidyl peptidase 9 (Homo sapiens); experiment: Inhibition of human recombinant DPP-9
Sequence (Q86TI2 whole entry): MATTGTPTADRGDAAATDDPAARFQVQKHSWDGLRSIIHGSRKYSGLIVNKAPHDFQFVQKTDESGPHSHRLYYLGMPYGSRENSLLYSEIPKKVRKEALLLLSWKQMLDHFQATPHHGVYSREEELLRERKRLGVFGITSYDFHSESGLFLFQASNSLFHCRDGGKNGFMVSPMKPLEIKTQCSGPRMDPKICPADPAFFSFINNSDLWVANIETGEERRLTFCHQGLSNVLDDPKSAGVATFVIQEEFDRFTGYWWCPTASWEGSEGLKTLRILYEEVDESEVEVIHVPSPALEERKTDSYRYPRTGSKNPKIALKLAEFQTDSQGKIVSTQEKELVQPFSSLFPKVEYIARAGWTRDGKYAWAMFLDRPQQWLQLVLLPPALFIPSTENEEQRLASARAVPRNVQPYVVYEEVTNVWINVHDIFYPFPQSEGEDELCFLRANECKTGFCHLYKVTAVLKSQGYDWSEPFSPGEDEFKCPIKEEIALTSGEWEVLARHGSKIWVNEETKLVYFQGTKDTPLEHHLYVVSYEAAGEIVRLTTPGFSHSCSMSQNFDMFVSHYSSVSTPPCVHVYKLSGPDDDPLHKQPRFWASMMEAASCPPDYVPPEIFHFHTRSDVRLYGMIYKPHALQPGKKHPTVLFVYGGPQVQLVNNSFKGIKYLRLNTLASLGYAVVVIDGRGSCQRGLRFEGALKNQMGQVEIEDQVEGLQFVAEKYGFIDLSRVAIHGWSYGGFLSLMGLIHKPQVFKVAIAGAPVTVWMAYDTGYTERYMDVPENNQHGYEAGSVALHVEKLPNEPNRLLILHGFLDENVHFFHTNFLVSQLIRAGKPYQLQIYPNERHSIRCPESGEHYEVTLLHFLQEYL
Reported endpoint: IC50

Note to self: IC50 recorded for CC#CCn1c(N2CCC[C@@H](N)C2)cc(=O)n(Cc2ccc(Cl)c(C(=O)N(C)C)c2)c1=O was > 100 µM

* * *

assay: MRT in ICR mouse at 1 to 10 mg/kg, po; format: ADME, organism-based; settings: in vivo, dose 1-10 mg/kg
Reported endpoint: MRT (h)
Numbers only here, please. The scale is h.

Note to self: MRT recorded for N[C@@H](CCNC(=O)N1CCn2c(nnc2C(F)(F)F)C1)Cc1cc(F)c(F)cc1F was 2.72

* * *

Catalogue of molecules with associated AUC
assay: AUC in C57BL/6J mouse at 20 mg/kg, po; type: ADME, organism-based; set-up: dose 20 mg/kg, route po; conditions: in vivo
// return the numeric value with its unit appended

Solved entries (count: 2):
Note to self: AUC recorded for N#Cc1ccc(NCCNCC(=O)N2CCC[C@H]2C#N)nc1 was 21500 ng·h/mL

Note to self: AUC recorded for N#C[C@@H]1CCCN1C(=O)CCCNC(=O)c1ccc(C(F)(F)F)cc1 was 17400 ng·h/mL

# ---- query molecule ----
Note to self: AUC recorded for N#Cc1ccc(C(=O)NCCCC(=O)N2CCC[C@H]2C#N)cc1 was 54000 ng·h/mL

* * *

target: Voltage-gated inwardly rectifying potassium channel KCNH2 (Homo sapiens, UniProt Q12809); assay: Inhibition of hERG by thallium flux assay; format: toxicity
Sequence (Q12809 whole entry): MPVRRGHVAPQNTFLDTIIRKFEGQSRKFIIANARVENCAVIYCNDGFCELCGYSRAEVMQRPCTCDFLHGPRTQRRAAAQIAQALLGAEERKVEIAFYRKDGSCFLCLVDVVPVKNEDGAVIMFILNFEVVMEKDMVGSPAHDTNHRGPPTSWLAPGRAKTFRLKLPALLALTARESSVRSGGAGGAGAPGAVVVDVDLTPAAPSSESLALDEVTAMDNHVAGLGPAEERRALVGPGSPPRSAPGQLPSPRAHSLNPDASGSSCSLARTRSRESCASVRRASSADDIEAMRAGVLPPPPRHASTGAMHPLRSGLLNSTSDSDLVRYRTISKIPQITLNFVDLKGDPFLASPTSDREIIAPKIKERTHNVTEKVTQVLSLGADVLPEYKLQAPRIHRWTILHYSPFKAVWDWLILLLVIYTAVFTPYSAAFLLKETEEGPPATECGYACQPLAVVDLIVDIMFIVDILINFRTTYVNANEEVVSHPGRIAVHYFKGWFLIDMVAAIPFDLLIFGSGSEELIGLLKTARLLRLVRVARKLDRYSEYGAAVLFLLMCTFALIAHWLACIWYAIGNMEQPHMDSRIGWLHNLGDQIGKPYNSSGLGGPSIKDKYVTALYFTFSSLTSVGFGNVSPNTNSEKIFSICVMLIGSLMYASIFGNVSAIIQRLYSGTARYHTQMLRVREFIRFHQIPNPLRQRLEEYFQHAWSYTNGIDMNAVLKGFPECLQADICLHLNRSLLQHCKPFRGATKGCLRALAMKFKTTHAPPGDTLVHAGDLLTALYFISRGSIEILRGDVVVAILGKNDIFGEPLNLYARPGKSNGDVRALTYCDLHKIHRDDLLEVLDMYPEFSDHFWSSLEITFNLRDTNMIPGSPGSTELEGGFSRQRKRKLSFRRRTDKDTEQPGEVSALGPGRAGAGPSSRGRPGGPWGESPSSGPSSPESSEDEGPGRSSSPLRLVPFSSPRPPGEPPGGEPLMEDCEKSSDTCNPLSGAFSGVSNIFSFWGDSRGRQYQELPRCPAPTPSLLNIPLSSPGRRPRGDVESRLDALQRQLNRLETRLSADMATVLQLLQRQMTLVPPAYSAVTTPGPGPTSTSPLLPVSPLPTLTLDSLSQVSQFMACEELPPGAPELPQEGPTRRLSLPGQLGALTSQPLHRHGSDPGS
Reported endpoint: IC50 (µM)
Numbers only here, please. The scale is µM.

Entry N#C[C@@H]1C[C@H](F)CN1C(=O)[C@@H](N)Cc1cc(Cl)c(Cl)cc1Cl ; assay system Voltage-gated inwardly rectifying potassium channel KCNH2 (Homo sapiens, UniProt Q12809); IC50 recorded at 97.7
